assay: Cytotoxicity against african green monkey Vero cells after 48 hrs by neutral red assay; format: cell-based; details: chlorocebus sabaeus, read-out: TC50
Listing of recorded CC50 at 48 h by entry.
Write it as a number; the unit µg/mL goes unstated.

item smiles	result unit	CC50 at 48 h
Cc1cccc(Sc2cc3ccccc3[n+](CCCCCc3ccccc3)c2)c1.[I-]	µg/mL	8.8
Brc1ccccc1Sc1cc2ccccc2[n+](CCCCCc2ccccc2)c1.[I-]	µg/mL	10
Cc1ccc(Sc2cc3ccccc3[n+](CCCCCC3CCCCC3)c2)cc1.[I-]	µg/mL	2.8
COc1ccccc1Sc1cc2ccccc2[n+](CCCCCc2ccccc2)c1.[I-]	µg/mL	4.3
FC(F)(F)c1ccc(Sc2cc3ccccc3[n+](CCCCCc3ccccc3)c2)cc1.[I-]	µg/mL	10
Cc1cccc(Sc2cc3ccccc3[n+](CCCCCC3CCCCC3)c2)c1.[I-]	µg/mL	3.7

Moving on to another compound below.
CC50 at 48 h for `N#Cc1ccccc1Sc1cc2ccccc2[n+](CCCCCC2CCCCC2)c1.[I-]` is 10

* * *

Listing of recorded MFC by entry.
test system: Cryptococcus neoformans; experiment: Antimicrobial activity against Cryptococcus neoformans ATCC 90113 by CLSI method; type: functional
Write it as a number; the unit µg/mL goes unstated.

> print(dat)
                                item.smiles  observation.type  result.unit  numeric.value
1  Oc1ccc(Sc2cc3ccccc3[n+](CCCCCC3CCCCC3)c2)cc1.[I-]               MFC        µg/mL            2.5
2  Cc1ccc(Sc2cc3ccccc3[n+](CCCCCC3CCCCC3)c2)cc1.[I-]               MFC        µg/mL            1.3

Moving on to another compound below.
MFC for `COc1cccc(Sc2cc3ccccc3[n+](CCCCCC3CCCCC3)c2)c1.[I-]` is 2.5

* * *

tested on: Candida albicans; assay: Antimicrobial activity against Candida albicans ATCC 90028 by alamar blue assay; assay type: functional, organism-based
Listing of recorded IC50 by entry.
Write it as a number; the unit µg/mL goes unstated.

> print(dat)
                                item.smiles  target.or.system  result.unit  numeric.value
1  Oc1cccc(Sc2cc3ccccc3[n+](CCCCCC3CCCCC3)c2)c1.[I-]  Candida albicans        µg/mL            3.5

IC50 for `N#Cc1ccccc1Sc1cc2ccccc2[n+](CCCCCC2CCCCC2)c1.[I-]` is 3.3

IC50 for `FC(F)(F)c1ccccc1Sc1cc2ccccc2[n+](CCCCCc2ccccc2)c1.[I-]` is 12

IC50 for `Cc1ccc(Sc2cc3ccccc3[n+](CCCCCC3CCCCC3)c2)cc1.[I-]` is 1.3

IC50 for `Oc1ccccc1Sc1cc2ccccc2[n+](CCCCCC2CCCCC2)c1.[I-]` is 4.7

IC50 for `Cc1cccc(Sc2cc3ccccc3[n+](CCCCCC3CCCCC3)c2)c1.[I-]` is 1.4

IC50 for `Oc1ccc(Sc2cc3ccccc3[n+](CCCCCC3CCCCC3)c2)cc1.[I-]` is 3.9

* * *

system: Nakaseomyces glabratus; assay: Antimicrobial activity against Candida glabrata ATCC 90030 by CLSI method; type: functional
Listing of recorded MIC by entry.
Write it as a number; the unit mg/L goes unstated.

Would you please look over these solved cases?
> print(dat)
                                item.smiles  numeric.value
1  Cc1ccc(Sc2cc3ccccc3[n+](CCCCCC3CCCCC3)c2)cc1.[I-]             10
2  Cc1ccccc1Sc1cc2ccccc2[n+](CCCCCC2CCCCC2)c1.[I-]             20

Moving on to another molecule below.
MIC for `Brc1ccccc1Sc1cc2ccccc2[n+](CCCCCC2CCCCC2)c1.[I-]` is 5
